targetEntity: α-amylase from Bacillus licheniformis (Bacillus licheniformis)
Sequence (P06278 30-512): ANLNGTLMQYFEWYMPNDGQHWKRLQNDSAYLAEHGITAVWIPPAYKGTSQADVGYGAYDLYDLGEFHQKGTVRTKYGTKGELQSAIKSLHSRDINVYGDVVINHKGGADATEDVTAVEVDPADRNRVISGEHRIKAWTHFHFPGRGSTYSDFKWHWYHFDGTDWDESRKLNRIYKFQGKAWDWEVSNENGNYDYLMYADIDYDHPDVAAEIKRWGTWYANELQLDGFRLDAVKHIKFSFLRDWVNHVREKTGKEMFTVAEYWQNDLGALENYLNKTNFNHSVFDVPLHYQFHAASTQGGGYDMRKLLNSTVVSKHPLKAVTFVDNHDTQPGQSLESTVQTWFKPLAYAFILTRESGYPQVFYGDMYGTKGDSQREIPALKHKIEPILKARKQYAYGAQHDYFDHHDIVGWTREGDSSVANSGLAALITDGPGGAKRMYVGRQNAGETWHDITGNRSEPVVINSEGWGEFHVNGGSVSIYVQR
testDetails: biochemical
Format: biochemical
conditionInfo: read-out: α-amylase (% inh. at 50 µg/mL)
propertyName: inhibition at 50 µg/mL (%)
Give the value in % but do not write % after it.

Sample `COc1ccc2c(=O)c(-c3ccc(O)cc3)coc2c1` — what was its inhibition at 50 µg/mL?
34.2

Please look up its inhibition at 50 µg/mL: COc1cc2c(=O)oc3c(OC)c(OC4OC(COC5OC(C)C(O)C(O)C5O)C(O)C(O)C4O)cc4c(=O)oc(c1OC)c2c34 (stereo not drawn)
45.4

Consider the molecule shown here: Oc1cc(O)c2c(c1)OC1(c3ccc(O)c(O)c3)OC1C2c1c(O)cc(O)c2c1OC(c1ccc(O)c(O)c1)C(O)C2c1c(O)cc(O)c2c1OC(c1ccc(O)c(O)c1)C(O)C2 (stereo not drawn) What is its recorded inhibition at 50 µg/mL?
34.3
